Cited source for all entries: the supplement of paper PMC8371130

System: HL-1
Test: relative cell viability (CellTiter-Glo) vs DMSO control (% of DMSO control); higher = more viable cells
Settings: oxygen condition: normoxia 72 h; 200 nM
Counter-ions that a name gives are not always drawn.
In this section, each of the compounds is paired with its reported relative cell viability.
MEASURED ENDPOINT: relative cell viability

COMPOUND	OBS VALUE
Cn1c(CCCC(=O)O)nc2cc(N(CCCl)CCCl)ccc21 [Bendamustine HCL]	114
C/C=C(\C)C(=O)N[C@@H](c1ccccc1)[C@@H](O)C(=O)O[C@H]1C[C@@]2(O)[C@@H](OC(=O)c3ccccc3)[C@@H]3[C@]4(OC(C)=O)CO[C@@H]4C[C@H](O)[C@@]3(C)C(=O)[C@H](OC(C)=O)C(=C1C)C2(C)C	21.7
NCCc1c[nH]c2ccc(O)cc12 [Serotonin HCl]	101
CNC(=O)Oc1ccc2c(c1)[C@]1(C)CCN(C)[C@@H]1N2C [Physostigmine Salicylate]	84.1
C[C@]12CCC(=O)C=C1C=C[C@@H]1[C@@H]2CC[C@@]2(C)[C@H]1CC[C@@]2(O)CCC(=O)O [Potassium Canrenoate]	98.6
O=P1(N(CCCl)CCCl)NCCCO1 (configuration not stated) [Cyclophosphamide monohydrate]	97
Cc1cccc([C@H](C)c2c[nH]cn2)c1C	104

====

Tested on: HL-1
Assay: relative cell viability (CellTiter-Glo) vs DMSO control (% of DMSO control); higher = more viable cells
Settings: oxygen condition: hypoxia 48 h (1% O2) + reoxygenation 24 h; 200 nM
Decision: relative cell viability beneath 100 gives 1; relative cell viability meeting or exceeding 100 gives 0.

> print(dat)
                                   compound  cat
1  Cc1cccc([C@H](C)c2c[nH]cn2)c1C [Dexmedetomidine]    0
2              N.N.[Cl][Pt][Cl] [Cisplatin]    1
3  COc1ccc(C(CN(C)C)C2(O)CCCCC2)cc1 (centres undefined) [Venlafaxine]    1
4  C[C@]12CC[C@H](O)CC1=CC[C@@H]1[C@@H]2CC[C@]2(C)C(=O)CC[C@@H]12 [Dehydroepiandrosterone]    1
5  O=P1(N(CCCl)CCCl)NCCCO1 (centres undefined) [Cyclophosphamide monohydrate]    1

====

In this section, each of the compounds is paired with its reported relative cell viability.
Tested on: HL-1
Test: relative cell viability (CellTiter-Glo) vs DMSO control (% of DMSO control); higher = more viable cells
Conditions: oxygen condition: hypoxia 48 h (1% O2) + reoxygenation 24 h; 1000 nM
Structures can show the parent of a compound that is named as a salt.
MEASURED ENDPOINT: relative cell viability

> print(dat)
                                    compound  obs.value
 1           COC(=O)C1=CCCN(C)C1 [Arecoline]        106
 2  CC(O)(CS(=O)(=O)c1ccc(F)cc1)C(=O)Nc1ccc(C#N)c(C(F)(F)F)c1 (stereo unspecified) [Bicalutamide]        107
 3    NCCc1c[nH]c2ccc(O)cc12 [Serotonin HCl]       99.8
 4  COc1ccc(C(CN(C)C)C2(O)CCCCC2)cc1 (stereo unspecified) [Venlafaxine]        101
 5  CCN(C)C(=O)Oc1cccc([C@H](C)N(C)C)c1 [Rivastigmine tartrate]        110
 6  Cc1cccc([C@H](C)c2c[nH]cn2)c1C [Dexmedetomidine]        106
 7  CC[C@@H](C(N)=O)N1CCCC1=O [Levetiracetam]        118
 8   COc1ccc(C(=O)N2CCCC2=O)cc1 [Aniracetam]        110
 9  O=C(O[C@H]1C[N+]2(CCCOc3ccccc3)CCC1CC2)C(O)(c1cccs1)c1cccs1 [Aclidinium Bromide]        108
10     Cc1cccc(C)c1NC1=NCCCS1 [Xylazine HCl]        103
11  C[C@]12C/C(=C/O)C(=O)C[C@@H]1CC[C@@H]1[C@@H]2CC[C@@]2(C)[C@H]1CC[C@]2(C)O [Oxymetholone]        104
